# credit: patent US12240859B2

- Assay Text: Solubility of turbinmicin in aqueous solvents
- Type: physicochemical
- Assay Setup: pH 7.4, aqueous buffer; No. 1, PBS; read-out: Highest Turbmicin conc. Achieved
Quantity Kind: solubility

> print(dat)
                                   molecule       result
1  C/C=C/C=C/C=C/C(=O)OC1C=CCC2C(=O)c3c(O)c4c5c(c3OC12)OCOC5CC1C(=O)c2cc(C)[nH]c(=O)c2C(=O)C41O (stereo not shown)  ≤ 500 µg/mL

---

- Assay Text: Solubility of turbinmicin in aqueous solvents
- Format: physicochemical
- Assay Setup: water; read-out: water solubility

Compound	solubility
C/C=C/C=C/C=C/C(=O)OC1C=CCC2C(=O)c3c(O)c4c5c(c3OC12)OCOC5CC1C(=O)c2cc(C)[nH]c(=O)c2C(=O)C41O (stereo not shown) [Turbinmicin, turbinmicin]	< 500 µg/mL
